Test system: SK-MEL-5 melanoma
Test: NCI-60 one-dose screen, 48 h (100 = growth as untreated, 0 = no growth, -100 = all killed)
Details: 10 µM unless noted
Compounds without any hit were thinned out: in the full panel of roughly 83,000, 20% have a hit.
Label key: criterion met means growth under 50%; criterion not met means growth of 50% or more.

Task: Field: below-cutoff. Rule: recorded growth strictly less than 50%. Subject: O=c1[nH]c(CN2CCN(c3ccccc3)CC2)nc2c(Br)cc(Br)cc12
Result: criterion not met

Task: Find out if reported growth for O=C(Nc1cccc(Cl)c1)Oc1c(Cl)c(Cl)c(Cl)c(Cl)c1Cl is less than 50%
Result: criterion not met

Task: For CCCN1C(=O)N(CCC)C2C1NC(=S)N2/N=C/C=C/c1ccccc1OC (stereo not given) , is the recorded growth below the cut-off of 50%?
Result: criterion met

Task: growth under 50%? Item: CCOC(=O)C1=CCC(n2cc(F)c(=O)[nH]c2=O)O1 (stereo not given)
Result: criterion not met

Where do these numbers come from? They come from PubChem BioAssay (NCI).
